# Tested on: ZIKV replicon
# experiment-summary: ZIKV replication inhibition assay (NanoLuc replicon in Vero cells)
# measurement-setup: Zika virus, Vero, 72 h, read-out: ZIKA Cell_Nanoluc, Vero cells with stable ZIKV replicon, 72 h, Nano-Glo readout
outcome-measure: EC50

For orientation, consider the following solved cases.
Query :: Look up and report EC50, with ZIKV replicon as system, for CN1CCc2ccccc2C1C[n+]1cc([N-]C(=O)Nc2ccnc(C(F)(F)F)c2)on1 (racemic) [Example 181]
Result :: 100 to 1000 nM

Query :: Report measured EC50 on ZIKV replicon; entry: O=C(CC1(N2CCCC2)COC1)Nc1cc(NC(=O)[N-]c2c[n+](Cc3ccccn3)no2)cc(C(F)(F)F)c1 [Example 86]
Result :: 1000 to 20000 nM

Query :: Send back ZIKV replicon EC50 of NCc1ccc(CC(=O)Nc2cc(NC(=O)[N-]c3c[n+](Cc4ccccn4)no3)cc(C(F)(F)F)c2)cc1 [Example 27] only.
Result :: 1000 to 20000 nM

Query :: Lab note: ZIKV replicon assay, enter EC50 for O=C(Cc1ccccc1)Nc1cc(NC(=O)[N-]c2c[n+](Cc3ccc(C(=O)O)cc3)no2)cc(C(F)(F)F)c1 [Example 101] here
Result :: > 20000 nM

Query :: Tell me EC50 of CN1CCc2ccccc2C1C[n+]1cc([N-]C(=O)Nc2cc(NC(=O)Cc3ccccc3)cc(C(F)(F)F)c2)on1 (racemic) [Example 192] when tested on ZIKV replicon.
Result :: 100 to 1000 nM

Record EC50 per entry; entries follow.
1. O=C([N-]c1c[n+](Cc2ccccn2)no1)Nc1cc(NC(=O)c2ccc3[nH]cnc3c2)cc(C(F)(F)F)c1 [Example 29]
2. O=C(Cc1ccccc1)Nc1cc(NC(=O)[N-]c2c[n+](Cc3ccc(CO)cn3)no2)cc(C(F)(F)F)c1 [Example 116]

Result ::
1000 to 20000 nM
1000 to 20000 nM

====

pIC50: −log10 of the molar value.
West Nile Virus (WNV) NS2B-NS3 protease (West Nile virus, UniProt Q9Q6P4): reported pIC50 for various compounds.

Provide pIC50 for all items below, preserving their order.
1. C[C@H](C(=O)Nc1cc(NC(=O)[N-]c2c[n+]([C@H]3CC[C@H](CN(C)C)CC3)no2)cc(C(F)(F)F)c1)c1ccccc1
2. Cc1nc(-c2ccc(C[n+]3cc([N-]C(=O)Nc4ccnc(C(F)(F)F)c4)on3)cc2)cs1
3. O=C([N-]c1c[n+](CC23CC(c4cncnc4)(C2)C3)no1)Nc1cccc(C(F)(F)F)c1
4. CNC(=O)c1ccc(NC(=O)[N-]c2c[n+](Cc3ccc(-c4c(C)ncnc4C)cc3)no2)cc1C(F)(F)F
5. COc1cc(NC(=O)[N-]c2c[n+](Cc3ccc(-c4c(C)ncnc4C)cc3)no2)ccn1
6. CC(C(=O)N(C)c1cc(NC(=O)[N-]c2c[n+]([C@H]3CC[C@H](CN(C)C)CC3)no2)cc(C(F)(F)F)c1)c1ccccc1 (some centres unmarked)
7. O=C([N-]c1c[n+](C[C@H]2CC[C@H](c3cncnc3)CC2)no1)Nc1ccnc(C(F)(F)F)c1
8. Cc1ccccc1CC(=O)Nc1cc(NC(=O)[N-]c2c[n+]([C@@H]3CCC[C@H](N(C)C)C3)no2)cc(C(F)(F)F)c1

Result ::
> 7.00
6.00 to 7.00
6.00 to 7.00
6.00 to 7.00
6.00 to 7.00
6.00 to 7.00
6.00 to 7.00
6.00 to 7.00

# per-item lookup of pIC50; items listed below
1. Cc1ccccc1CC(=O)Nc1cc(NC(=O)[N-]c2c[n+]([C@@H]3CCC[C@@H](C(N)=O)C3)no2)cc(C(F)(F)F)c1 [Example 267]
2. CC(=O)Nc1ccc(NC(=O)[N-]c2c[n+](Cc3ccc(-c4c(C)ncnc4C)cc3)no2)cc1C(F)(F)F
3. Cc1ccccc1CC(=O)Nc1cc(NC(=O)[N-]c2c[n+]([C@@H]3CCCC[C@H]3O)no2)cc(C(F)(F)F)c1
4. Cc1nsc(C)c1-c1ccc(C[n+]2cc([N-]C(=O)Nc3ccnc(C(F)(F)F)c3)on2)cc1

Result ::
["6.00 to 7.00", "> 7.00", "6.00 to 7.00", "6.00 to 7.00"]

State recorded pIC50 for all listed compounds.
1. Cc1ccccc1CC(=O)Nc1cc(NC(=O)[N-]c2c[n+]([C@H]3CCCC[C@H]3O)no2)cc(C(F)(F)F)c1
2. CN(C)C[C@H]1CC[C@H]([n+]2cc([N-]C(=O)Nc3cc(NC(=O)Cc4ccc5c(c4)OCO5)cc(C(F)(F)F)c3)on2)CC1

Result ::
1: 6.00 to 7.00; 2: 4.70 to 6.00

====

# test-system: Japanese encephalitis virus (JEV)-NS2B-NS3 protease (Japanese encephalitis virus, UniProt P32886, DEL1469-1493)
# experiment-summary: JEV protease inhibition assay
# Type: biochemical
pIC50: −log10 of the molar value.
outcome-measure: pIC50

Query :: Please report the measured pIC50 for NC[C@H]1CC[C@@H]([n+]2cc([N-]C(=O)Nc3cc(N4CCC(c5ccccc5)C4=O)cc(C(F)(F)F)c3)on2)CC1 (some centres unmarked)
Result :: 4.70 to 6.00

Query :: # return recorded pIC50 for input `CN(C)[C@H]1CC[C@@H]([n+]2cc([N-]C(=O)Nc3cc(NC(=O)Cc4ccccc4)cc(C(F)(F)F)c3)on2)CC1`
Result :: 4.70 to 6.00

Query :: Identify measured pIC50 corresponding to `CC(=O)NC[C@H]1CC[C@@H]([n+]2cc([N-]C(=O)Nc3cc(NC(=O)Cc4ccccc4)cc(C(F)(F)F)c3)on2)CC1`
Result :: 4.70 to 6.00

Query :: Give me measured pIC50, please, for this compound: `CN(C)C[C@H]1CC[C@@H]([n+]2cc([N-]C(=O)Nc3cc(NC(=O)Cc4ccccc4)cc(C(F)(F)F)c3)on2)CC1`
Result :: 4.70 to 6.00

Query :: Using known records, supply pIC50 for `NC[C@H]1CC[C@@H]([n+]2cc([N-]C(=O)Nc3cc(NC(=O)Cc4ccccc4)cc(C(F)(F)F)c3)on2)CC1`
Result :: 4.70 to 6.00

Query :: Quick one: give measured pIC50 for CN(C)C[C@H]1CC[C@@H]([n+]2cc([N-]C(=O)Nc3cc(N4CCC(c5ccccc5)C4=O)cc(C(F)(F)F)c3)on2)CC1 (some centres unmarked)
Result :: 4.70 to 6.00

Query :: Supply reported pIC50 belonging to this compound: `NC[C@H]1CC[C@H]([n+]2cc([N-]C(=O)Nc3cc(NC(=O)Cc4ccccc4)cc(C(F)(F)F)c3)on2)CC1`
Result :: 6.00 to 7.00

Others:
Query :: Specify pIC50 for O=C([N-]c1c[n+](C[C@H]2CC[C@@H](CNCC(F)(F)F)CC2)no1)Nc1cc(N2CCC(c3ccccc3)C2=O)cc(C(F)(F)F)c1 (some centres unmarked) and stop.
Result :: < 4.70

====

Assign EC50 to each entry below.
# System: ZIKV replicon
# experiment-summary: ZIKV replication inhibition assay (NanoLuc replicon in Vero cells)
# measurement-setup: Zika virus, Vero, 72 h, read-out: ZIKA Cell_Nanoluc, Vero cells with stable ZIKV replicon, 72 h, Nano-Glo readout

Query :: Report its EC50 with ZIKV replicon as the test system: C=CCOC(=O)C[n+]1cc([N-]C(=O)Nc2cc(NC(=O)Cc3ccccc3)cc(C(F)(F)F)c2)on1 [Example 97]
Result :: > 20000 nM

Query :: Provide EC50, tested on ZIKV replicon, for CN1CCC(C[n+]2cc([N-]C(=O)Nc3cc(NC(=O)Cc4ccccc4)cc(C(F)(F)F)c3)on2)CC1 [Example 106] .
Result :: 1000 to 20000 nM

Query :: Given CN1c2ccccc2CCC1C[n+]1cc([N-]C(=O)Nc2ccnc(C(F)(F)F)c2)on1 (racemic) [Example 178] , report its EC50 on ZIKV replicon.
Result :: 100 to 1000 nM

Query :: State EC50 (ZIKV replicon) of COC(=O)[C@@H]1CCC[C@@H]([n+]2cc([N-]C(=O)Nc3cc(NC(=O)Cc4ccccc4C)cc(C(F)(F)F)c3)on2)C1 [Example 224] .
Result :: < 100 nM

Query :: With ZIKV replicon as the test system, provide measured EC50 for this molecule: O=C(Cc1ccccc1)Nc1cc(NC(=O)[N-]c2c[n+](Cc3ccccc3)no2)cc(C(F)(F)F)c1 [Example 28]
Result :: 1000 to 20000 nM

// input: 2 molecules below; output: EC50 for each
1. Cc1ccccc1CC(=O)Nc1cc(NC(=O)[N-]c2c[n+]([C@@H]3CCC[C@H](C(=O)N(C)C)C3)no2)cc(C(F)(F)F)c1 [Example 234]
2. NCc1ccccc1-c1ccc(C[n+]2cc([N-]C(=O)Nc3cc(NC(=O)Cc4ccccc4)cc(C(F)(F)F)c3)on2)nc1 [Example 5]

Result ::
1: 1000 to 20000 nM; 2: 1000 to 20000 nM
